The measured values listed here are drawn from patent EP0938338B1.

PROTOCOL_SUMMARY: Saturation concentration in reference solution
TEST_SETTINGS: krebs - tris.hcl buffer, pH 8, aqueous buffer
MEASUREMENT_LABEL: solubility (µg/mL)

INSERT INTO assay_data (mol, experimental_result) VALUES
  ('O=C(O)c1cc(O)c2c(c1)C(=O)c1cccc(O)c1C2=O', 0.952);
